# Tested target: human adenosine A2B receptor (Homo sapiens)
# Construct: expressed in transfected cells; host or cells: CHOK1 cells
# Sequence (P29275 whole entry): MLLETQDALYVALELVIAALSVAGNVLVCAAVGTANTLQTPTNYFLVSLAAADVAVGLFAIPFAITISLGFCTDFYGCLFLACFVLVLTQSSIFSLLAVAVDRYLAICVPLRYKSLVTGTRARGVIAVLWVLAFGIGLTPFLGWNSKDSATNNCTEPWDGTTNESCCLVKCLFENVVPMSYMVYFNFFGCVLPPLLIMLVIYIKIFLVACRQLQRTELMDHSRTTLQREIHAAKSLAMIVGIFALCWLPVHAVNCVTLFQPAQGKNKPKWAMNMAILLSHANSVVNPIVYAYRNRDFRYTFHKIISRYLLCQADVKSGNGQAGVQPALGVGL
# Test name: Inhibition of NECA-stimulated production of cAMP in adenosine A2B receptor-expressing CHOK1 cells
# Type: cell-based
# Condition parameters: cAMP stimulated by 30 nM NECA
Assay endpoint: IC50 (nM)

Cn1cc(-c2cnc(N)nc2-c2ccco2)ccc1=O    29
C=CCn1cc(-c2cnc(N)nc2-c2ccco2)ccc1=O    26
CCn1cc(-c2cnc(N)nc2-c2ccco2)ccc1=O    25

* * *

# Tested target: human adenosine A1 receptor (Homo sapiens)
# Construct: expressed in transfected cells; host or cells: CHOK1 cells (membrane sample)
# Sequence (P30542 whole entry): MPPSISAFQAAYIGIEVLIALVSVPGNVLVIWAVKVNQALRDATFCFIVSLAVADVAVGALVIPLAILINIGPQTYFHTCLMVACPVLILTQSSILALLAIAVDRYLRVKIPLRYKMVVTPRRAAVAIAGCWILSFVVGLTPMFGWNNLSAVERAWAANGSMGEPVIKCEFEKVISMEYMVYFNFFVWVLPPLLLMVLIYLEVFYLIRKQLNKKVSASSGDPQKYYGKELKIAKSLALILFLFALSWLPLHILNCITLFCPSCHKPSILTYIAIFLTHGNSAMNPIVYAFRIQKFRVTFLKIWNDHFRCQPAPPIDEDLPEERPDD
# Test name: Binding affinity to adenosine A1 receptor (3H-CCPA displacement)
# Condition parameters: membranes of CHOK1 cells expressing human A1 receptor, Cheng-Prusoff
Assay endpoint: Ki (nM)

I. CCn1cc(-c2cnc(N)nc2-c2ccco2)ccc1=O
II. C=CCn1cc(-c2cnc(N)nc2-c2ccco2)ccc1=O
III. Cn1cc(-c2cnc(N)nc2-c2ccco2)ccc1=O
Hey, quick one: sort these by Ki, low to high? Write out the labels following the order that was asked for.
II, III, I

FYI, the data here is from patent US7396836B2.
